tested on: Yap1 mRNA; assay: Dose-dependent inhibition of human Yap1 in A-431 cells (Example 8, 10,000 cells per well, RTS4814); format: cell-based; settings: 125.0 nM; A-431 cells, 10,000 cells per well, free uptake, approximately 48 hours, RTS4814
Strand notation (5' to 3'): a small letter for the sugar, then the base; units joined by * are phosphorothioate-linked, units joined directly phosphodiester-linked; [ ] holds rarer units or linkages, { } end groups; capitals alone tell only the bases. k = constrained ethyl (cEt); [5mC] = 5-methylcytosine; d = 2'-deoxy (DNA)
Consider the following substances and their measured Yap1 mRNA, % UTC readings.

Substance: 1074628 (DNA kG*k[5mC]*k[5mC]*dT*dG*dT*dT*dA*dT*dG*dA*dA*d[5mC]*k[5mC]*k[5mC]*kT) [compound 1074628]
Yap1 mRNA, % UTC (% UTC): 13
--
Substance: 1076459 (k[5mC]*kT*kT*d[5mC]*dA*dA*d[5mC]*dA*dA*dG*dA*d[5mC]*dA*kG*kG*kT; antisense) [compound 1076459]
Yap1 mRNA, % UTC (% UTC): 32
--
Substance: 1074610 (DNA kT*k[5mC]*kT*dA*dG*dT*dT*dA*d[5mC]*dA*dT*d[5mC]*dA*kT*k[5mC]*kT) [compound 1074610]
Yap1 mRNA, % UTC (% UTC): 20
--
Substance: 1075243 (k[5mC]*kT*kT*dA*dG*dT*dA*dA*dG*dA*dA*dT*dT*kG*kT*k[5mC]; antisense) [compound 1075243]
Yap1 mRNA, % UTC (% UTC): 18
--
Substance: 1074564 (DNA k[5mC]*kT*kG*dA*dA*dT*dT*d[5mC]*d[5mC]*dA*dA*dT*d[5mC]*kG*kA*kG) [compound 1074564]
Yap1 mRNA, % UTC (% UTC): 14
--
Substance: 1075778 (k[5mC]*kA*kT*dT*dT*dA*dT*dA*d[5mC]*d[5mC]*dA*dG*dG*k[5mC]*kA*k[5mC]; antisense) [compound 1075778]
Yap1 mRNA, % UTC (% UTC): 29
--
Substance: 1074411 (kT*kG*kT*dG*dA*dA*dA*dG*dA*dG*dG*dT*d[5mC]*kA*kG*k[5mC]; antisense) [compound 1074411]
Yap1 mRNA, % UTC (% UTC): 20
--
Substance: 1074594 (DNA kT*kA*kG*dG*dA*dG*d[5mC]*dA*dA*dG*dT*d[5mC]*dT*kT*kG*kT) [compound 1074594]
Yap1 mRNA, % UTC (% UTC): 23
--
Substance: 1074626 (DNA k[5mC]*kT*kG*dT*dT*dA*dT*dG*dA*dA*d[5mC]*d[5mC]*d[5mC]*kT*kT*kG) [compound 1074626]
Yap1 mRNA, % UTC (% UTC): 18

###

test system: Yap1 mRNA; test: Antisense inhibition of human Yap1 in A-431 cells by cEt gapmers, single dose (Example 2, RTS4814); format: cell-based; conditions: Table 32; Yap1 mRNA, percent of untreated control; 3-10-3 cEt gapmers targeting SEQ ID NO.: 1, and 2
Strand notation (5' to 3'): a small letter for the sugar, then the base; units joined by * are phosphorothioate-linked, units joined directly phosphodiester-linked; [ ] holds rarer units or linkages, { } end groups; capitals alone tell only the bases. k = constrained ethyl (cEt); [5mC] = 5-methylcytosine; d = 2'-deoxy (DNA)
Rule: YAP1 (% UTC) under 50 % UTC gives label 0, otherwise label 1.

Substance: 1075890 (antisense kG*kA*kT*dT*dA*dA*dA*dA*dG*dT*dA*dG*dG*k[5mC]*k[5mC]*k[5mC]) [compound 1075890]
Test target: Yap1 mRNA
Label value: label 1
--
Substance: 1074514 (kA*kA*kG*dG*dA*dT*dA*d[5mC]*dA*dT*dT*d[5mC]*d[5mC]*kA*k[5mC]*kT; antisense) [compound 1074514]
Test target: Yap1 mRNA
Label value: label 0
--
Substance: 1074162 (kA*kG*kG*d[5mC]*dG*dA*dG*d[5mC]*dG*dA*dG*dG*dG*k[5mC]*kT*kA; antisense) [compound 1074162]
Test target: Yap1 mRNA
Label value: label 1
--
Substance: 1074386 (k[5mC]*kA*kG*dG*dA*dA*dT*dG*dG*d[5mC]*dT*dT*d[5mC]*kA*kA*kG; antisense) [compound 1074386]
Test target: Yap1 mRNA
Label value: label 0
--
Substance: 1075314 (antisense kA*kA*kT*dA*dA*dA*dG*dT*d[5mC]*dT*dA*dA*dT*k[5mC]*k[5mC]*kA) [compound 1075314]
Test target: Yap1 mRNA
Label value: label 1
